Tested on: H3K27 methylation in G401 cell
run-description: ELISA (H3K27 methylation) assay in G401 cells
Format: cell-based, human
condition-notes: Homo sapiens, G-401, read-out: (c) IC50, ELISA Qualified
Procedure: Compounds of the present invention were assessed for their ability to inhibit PRC2 activity in a pentameric complex of EZH2, SUZ12, EED, Rbap48 and AEBP in biochemical assays. The ability of compounds of the present invention to inhibit cellular activity of PRC2 was assessed by analysing histone H3 lysine 27 methylation in human cell lines. […]
measured-endpoint: IC50 (nM)

chemical-smiles: COc1ccc(F)cc1CNc1ccc(-c2ccc(S(C)(=O)=O)nc2)c2nncn12
measured: 696
//
chemical-smiles: COc1ccccc1CNc1ccc(-c2ccc(Cn3ccnc3)cc2)c2nncn12
measured: 133
//
chemical-smiles: COc1cncc(-c2ccc(NCc3ccccc3OC)n3cnnc23)c1
measured: 159
//
chemical-smiles: COc1ccccc1CNc1ccc(-c2ccc(S(=O)(=O)NCCO)cc2)c2nncn12
measured: 102

----------
assay-system: wild type PRC2 (wtPRC2) complex (Homo sapiens)
Sequence (Q15910 whole entry partner, one chain of several): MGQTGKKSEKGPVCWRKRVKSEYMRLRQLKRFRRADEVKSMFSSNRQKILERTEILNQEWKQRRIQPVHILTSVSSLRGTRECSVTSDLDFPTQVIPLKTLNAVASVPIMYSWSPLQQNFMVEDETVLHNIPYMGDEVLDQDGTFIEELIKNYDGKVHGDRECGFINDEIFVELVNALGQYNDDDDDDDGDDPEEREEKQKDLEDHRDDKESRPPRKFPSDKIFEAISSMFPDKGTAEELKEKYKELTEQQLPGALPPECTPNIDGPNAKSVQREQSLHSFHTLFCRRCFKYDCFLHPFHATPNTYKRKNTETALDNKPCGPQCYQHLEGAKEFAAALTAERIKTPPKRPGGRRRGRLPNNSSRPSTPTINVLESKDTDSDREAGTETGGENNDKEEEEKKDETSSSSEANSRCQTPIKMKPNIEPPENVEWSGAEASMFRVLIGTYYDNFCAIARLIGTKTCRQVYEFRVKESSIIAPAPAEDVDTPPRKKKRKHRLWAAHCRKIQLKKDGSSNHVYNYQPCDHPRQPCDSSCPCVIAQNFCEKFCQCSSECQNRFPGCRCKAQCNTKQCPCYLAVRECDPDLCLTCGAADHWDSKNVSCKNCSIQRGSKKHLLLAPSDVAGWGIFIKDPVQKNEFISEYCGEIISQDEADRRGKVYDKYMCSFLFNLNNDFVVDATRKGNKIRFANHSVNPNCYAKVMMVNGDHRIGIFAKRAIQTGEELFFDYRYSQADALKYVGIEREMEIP
Sequence (Q15022 whole entry partner, one chain of several): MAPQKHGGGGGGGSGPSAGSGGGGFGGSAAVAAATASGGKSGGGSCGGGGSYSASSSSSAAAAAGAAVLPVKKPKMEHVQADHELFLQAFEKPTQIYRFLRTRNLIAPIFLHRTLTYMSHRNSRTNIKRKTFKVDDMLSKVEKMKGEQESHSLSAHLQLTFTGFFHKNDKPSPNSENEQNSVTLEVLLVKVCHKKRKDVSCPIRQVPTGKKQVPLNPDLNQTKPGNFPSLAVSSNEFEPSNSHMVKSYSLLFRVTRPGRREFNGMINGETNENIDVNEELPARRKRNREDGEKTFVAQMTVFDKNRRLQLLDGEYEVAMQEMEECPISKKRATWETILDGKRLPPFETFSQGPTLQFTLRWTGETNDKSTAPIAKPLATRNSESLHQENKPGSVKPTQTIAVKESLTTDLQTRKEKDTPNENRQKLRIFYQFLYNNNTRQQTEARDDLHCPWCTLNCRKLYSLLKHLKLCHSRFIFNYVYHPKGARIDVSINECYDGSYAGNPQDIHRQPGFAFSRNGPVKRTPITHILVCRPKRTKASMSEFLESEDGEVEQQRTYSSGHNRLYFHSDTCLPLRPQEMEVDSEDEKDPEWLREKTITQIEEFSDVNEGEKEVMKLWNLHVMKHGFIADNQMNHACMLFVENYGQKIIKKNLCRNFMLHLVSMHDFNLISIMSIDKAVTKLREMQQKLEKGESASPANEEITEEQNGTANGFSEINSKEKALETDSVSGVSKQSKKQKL
Sequence (Q09028 whole entry partner, one chain of several): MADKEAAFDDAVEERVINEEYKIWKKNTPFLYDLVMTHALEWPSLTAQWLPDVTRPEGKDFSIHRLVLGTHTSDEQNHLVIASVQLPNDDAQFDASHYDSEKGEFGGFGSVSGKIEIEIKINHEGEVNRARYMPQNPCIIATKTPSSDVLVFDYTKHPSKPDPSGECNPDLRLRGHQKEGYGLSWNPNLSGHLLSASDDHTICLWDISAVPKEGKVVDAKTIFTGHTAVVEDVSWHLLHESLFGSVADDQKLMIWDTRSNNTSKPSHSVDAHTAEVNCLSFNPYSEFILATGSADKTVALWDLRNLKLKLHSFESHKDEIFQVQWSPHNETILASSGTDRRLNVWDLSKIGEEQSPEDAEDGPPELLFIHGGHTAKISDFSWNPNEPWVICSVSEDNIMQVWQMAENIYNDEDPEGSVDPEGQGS
Sequence (Q6ZN18 whole entry partner, one chain of several): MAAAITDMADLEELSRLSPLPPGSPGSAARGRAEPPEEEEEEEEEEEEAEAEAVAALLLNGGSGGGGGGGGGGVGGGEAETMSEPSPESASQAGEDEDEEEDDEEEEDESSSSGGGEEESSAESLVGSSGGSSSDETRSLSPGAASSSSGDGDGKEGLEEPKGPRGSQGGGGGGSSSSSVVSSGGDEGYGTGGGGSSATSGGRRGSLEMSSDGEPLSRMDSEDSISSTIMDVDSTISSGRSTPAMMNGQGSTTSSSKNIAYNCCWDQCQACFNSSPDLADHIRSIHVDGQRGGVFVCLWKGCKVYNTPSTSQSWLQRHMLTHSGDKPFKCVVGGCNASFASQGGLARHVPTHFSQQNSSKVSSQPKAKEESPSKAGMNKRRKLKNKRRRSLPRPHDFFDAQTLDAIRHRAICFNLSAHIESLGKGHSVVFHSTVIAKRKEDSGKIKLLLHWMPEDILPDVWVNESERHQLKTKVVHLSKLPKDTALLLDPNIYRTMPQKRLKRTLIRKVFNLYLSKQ
run-description: EED LC-MS assay (SAH production by PRC2)
Format: biochemical
condition-notes: read-out: (b) IC50 EED LC-MS Qualified
pIC50: −log10 of the molar value.

chemical-smiles: COc1cccc(F)c1CNc1ccc(-n2cncn2)c2nncn12
pIC50: 6.54
--
chemical-smiles: COc1cccc(F)c1CNc1ccc(-n2ccnn2)c2nncn12
pIC50: 7.16
--
chemical-smiles: COc1cccc(F)c1CNc1ccc(-n2cc(C)c(C)n2)c2nncn12
pIC50: 6.95
--
chemical-smiles: COc1cccc(F)c1CNc1ccc(-n2ccnc2)c2nncn12
pIC50: 7.26
--
chemical-smiles: COc1cccc(F)c1CNc1ccc(-c2ncnn2C)c2nncn12
pIC50: 6.93
--
chemical-smiles: COc1cccc(F)c1CNc1ccc(-c2cc(C#N)cnc2C)c2nncn12
pIC50: 7.34
--
chemical-smiles: COc1ncccc1CNc1ccc(-c2cnc(C)nc2C)c2nncn12
pIC50: 6.68
--
chemical-smiles: COc1cccc(F)c1CNc1ccc(-n2ccc(C)n2)c2nncn12
pIC50: 6.56

----------
assay-system: EED (1-441)-His protein (Homo sapiens, UniProt O75530)
Construct: 30 nM EED (1-441)-His protein
Sequence (O75530 whole entry): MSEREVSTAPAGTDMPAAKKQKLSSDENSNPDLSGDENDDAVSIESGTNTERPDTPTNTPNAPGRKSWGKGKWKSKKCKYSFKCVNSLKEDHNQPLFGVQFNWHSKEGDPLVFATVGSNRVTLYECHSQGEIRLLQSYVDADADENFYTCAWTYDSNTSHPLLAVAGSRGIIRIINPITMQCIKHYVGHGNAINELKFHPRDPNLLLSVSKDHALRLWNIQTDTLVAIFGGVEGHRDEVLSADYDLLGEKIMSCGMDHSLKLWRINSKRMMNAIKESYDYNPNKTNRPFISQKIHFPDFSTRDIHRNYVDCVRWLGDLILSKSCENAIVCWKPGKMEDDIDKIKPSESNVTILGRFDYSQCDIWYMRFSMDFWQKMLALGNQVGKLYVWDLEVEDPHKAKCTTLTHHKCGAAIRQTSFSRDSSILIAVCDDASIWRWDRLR
run-description: EED-H3K27Me3 peptide competition binding assay by AlphaScreen
condition-notes: read-out: (a) IC50, EED Alphascreen binding Qualified
Threshold-based label: IC50 under 30 nM gives TRUE, IC50 not under 30 nM gives FALSE.

chemical-smiles: COc1ccc(F)cc1CNc1ccc(-c2cccnc2)c2nncn12
class-name: FALSE
--
chemical-smiles: COc1cccc(F)c1CNc1ccc(-c2ccnn2C)c2nncn12
class-name: TRUE
--
chemical-smiles: COc1cc(F)ccc1CNc1ccc(-c2ccc(N3CCN(C(C)C)CC3)nc2)c2nncn12
class-name: FALSE
--
chemical-smiles: COc1cc(F)ccc1CNc1ccc(-c2ccc(NS(C)(=O)=O)cc2)c2nncn12
class-name: FALSE
--
chemical-smiles: COc1ccccc1CNc1ccc(-c2ccc(CN3CCOCC3)nc2)c2nncn12
class-name: FALSE
--
chemical-smiles: COc1ccccc1CNc1ccc(-c2ccc(S(C)(=O)=O)nc2)c2nncn12
class-name: FALSE
--
chemical-smiles: COc1ccccc1CNc1ccc(-c2ccccc2C)c2nncn12
class-name: FALSE
--
chemical-smiles: COc1cccc(F)c1CNc1ccc(-c2cnc(N3CCN(C(C)C)CC3)c(Cl)c2)c2nncn12
class-name: TRUE
--
chemical-smiles: COc1ccccc1CNc1ccc(-c2ccc(N3CCN(C(C)C)CC3)nc2)c2nncn12
class-name: FALSE
--
chemical-smiles: COc1cccc(F)c1CNc1ccc(-c2ccc(S(N)(=O)=O)cc2)c2nncn12
class-name: TRUE
--
chemical-smiles: COc1cccc(F)c1CNc1ccc(-c2cccnc2F)c2nncn12
class-name: TRUE
--
chemical-smiles: COc1cc(F)cc(CNc2ccc(-c3ccc(CN(C)C)cc3)c3nncn23)c1
class-name: FALSE
--
chemical-smiles: COc1cccc(F)c1CNc1ccc(-c2ccc(S(=O)(=O)C3CCN(C)CC3)cc2)c2nncn12
class-name: TRUE

----------
Test system: H3K27 methylation in G401 cell
run-description: ELISA (H3K27 methylation) assay in G401 cells
Assay type: cell-based, human
condition-notes: Homo sapiens, G-401, read-out: (c) IC50, ELISA Qualified

chemical-smiles: COc1cccc(F)c1CNc1ccc(-c2ccc(NS(C)(=O)=O)c(F)c2)c2nncn12
IC50 [nM]: 53

chemical-smiles: COc1ccccc1CNc1ccc(-c2cncnc2)c2nncn12
IC50 [nM]: 66.3

chemical-smiles: COc1cccc(F)c1CNc1ccc(-c2cnc(C)nc2)c2nncn12
IC50 [nM]: 26.1

chemical-smiles: COc1ccccc1CNc1ccc(-c2ccc(CN(C)C)cc2F)c2nncn12
IC50 [nM]: 334

chemical-smiles: COc1ccccc1CNc1ccc(-c2ccc(S(C)(=O)=O)nc2)c2nncn12
IC50 [nM]: 61.9

chemical-smiles: COc1cccc(F)c1CNc1ccc(-c2cnc(N3CCN(C(C)C)CC3)nc2)c2nncn12
IC50 [nM]: 81.2

chemical-smiles: COc1ccccc1CNc1ccc(-c2ccc(S(=O)(=O)C3CCN(C)CC3)cc2)c2nncn12
IC50 [nM]: 18.5

chemical-smiles: CCS(=O)(=O)c1ccc(-c2ccc(NCc3ccccc3OC)n3cnnc23)cc1
IC50 [nM]: 88.5

chemical-smiles: COc1ccccc1CNc1ccc(-c2cccc(CN(C)C)c2)c2nncn12
IC50 [nM]: 54

chemical-smiles: COc1cc(F)ccc1CNc1ccc(-c2ccc(NS(C)(=O)=O)cc2)c2nncn12
IC50 [nM]: 1030

chemical-smiles: COc1cccc(F)c1CNc1ccc(-c2cccnc2)c2nncn12
IC50 [nM]: 9.5

chemical-smiles: COc1cccc(F)c1CNc1ccc(-c2ccc(S(=O)(=O)C3CCNCC3)cc2)c2nncn12
IC50 [nM]: 21.8

chemical-smiles: COc1ccccc1CNc1ccc(-c2ccc(CN3CCOCC3)nc2)c2nncn12
IC50 [nM]: 46.9

chemical-smiles: COc1cccc(F)c1CNc1ccc(-c2ccc(N(C)S(C)(=O)=O)nc2)c2nncn12
IC50 [nM]: 10.7

chemical-smiles: COc1ccccc1CNc1ccc(-c2ccccc2C)c2nncn12
IC50 [nM]: 529

chemical-smiles: COc1cccc(F)c1CNc1ccc(-c2cnc(N3CCN(C(C)C)CC3)c(C(F)(F)F)c2)c2nncn12
IC50 [nM]: 191

chemical-smiles: COc1c(F)cccc1CNc1ccc(-c2ccncc2)c2nncn12
IC50 [nM]: 733

chemical-smiles: COc1ccccc1CNc1ccc(-c2cnc(N3CCN(C)CC3)c(C)c2)c2nncn12
IC50 [nM]: 185

chemical-smiles: COc1cccc(F)c1CNc1ccc(-c2ncccc2C)c2nncn12
IC50 [nM]: 57

chemical-smiles: COc1ccccc1CNc1ccc(-c2cnc(N3CCN(C)CC3)c(Cl)c2)c2nncn12
IC50 [nM]: 488

chemical-smiles: COc1cccc(F)c1CNc1ccc(-c2ccc(S(N)(=O)=O)cc2)c2nncn12
IC50 [nM]: 40

chemical-smiles: COc1ccccc1CNc1ccc(-c2ccccc2F)c2nncn12
IC50 [nM]: 293

chemical-smiles: COc1ccccc1CNc1ccc(-c2ccc(N3CCN(C)CC3)nc2)c2nncn12
IC50 [nM]: 234

----------
Tested on: H3K27 methylation in G401 cell
run-description: ELISA (H3K27 methylation) assay in G401 cells
Format: cell-based, human
condition-notes: Homo sapiens, G-401, H3K27 methylation ELISA, read-out: (c) IC50 ELISA Qualified
Parameter: IC50. Scope: all listed entries.

chemical-smiles: COc1cccc(F)c1CNc1ccc(-c2ccncc2C)c2nncn12
IC50 [µM]: 0.0094

chemical-smiles: COc1cccc(F)c1CNc1ccc(-c2ccc(S(C)(=O)=O)cc2C)c2nncn12
IC50 [µM]: 0.0135

chemical-smiles: COc1cccc(F)c1CNc1ccc(-c2cc(F)c(N)c(F)c2)c2nncn12
IC50 [µM]: 0.11

chemical-smiles: COc1cccc(F)c1CNc1ccc(-c2ccc(C(=O)N(C)C)cc2C)c2nncn12
IC50 [µM]: 0.0034

chemical-smiles: COc1cccc(F)c1CNc1ccc(-c2cnc(C)cc2C(F)F)c2nncn12
IC50 [µM]: 0.0173

chemical-smiles: COc1cccc(F)c1CNc1ccc(-c2cnn(C3CC3)c2)c2nncn12
IC50 [µM]: 0.0619

chemical-smiles: COc1cc(F)cc(F)c1CNc1ccc(-c2c(C)noc2C)c2nncn12
IC50 [µM]: 0.0402

chemical-smiles: COc1cc(F)cc(F)c1CNc1ccc(-c2cnc(S(C)(=O)=O)cc2C)c2nncn12
IC50 [µM]: 0.0295

chemical-smiles: COc1cccc(F)c1CNc1ccc(-c2cc(C(F)F)ncc2C)c2nncn12
IC50 [µM]: 0.0155

chemical-smiles: COc1cccc(F)c1CNc1ccc(-c2cncc(C3=NC(C)(C)CO3)c2)c2nncn12
IC50 [µM]: 0.0313
